Sourced from patent US7081460B2

molecular target: Human αvβ3 (Homo sapiens, UniProt P05106+P06756); construct: purchased Chemicon International Inc., Temecula, Calif; experiment: In vitro solid phase purified αvβ3 binding assay (vitronectin/αvβ3); settings: isolated human αvβ3, 5 nM vitronectin; read-out: αvβ3 Binding IC50
Sequence (P06756 31-889 limits assumed): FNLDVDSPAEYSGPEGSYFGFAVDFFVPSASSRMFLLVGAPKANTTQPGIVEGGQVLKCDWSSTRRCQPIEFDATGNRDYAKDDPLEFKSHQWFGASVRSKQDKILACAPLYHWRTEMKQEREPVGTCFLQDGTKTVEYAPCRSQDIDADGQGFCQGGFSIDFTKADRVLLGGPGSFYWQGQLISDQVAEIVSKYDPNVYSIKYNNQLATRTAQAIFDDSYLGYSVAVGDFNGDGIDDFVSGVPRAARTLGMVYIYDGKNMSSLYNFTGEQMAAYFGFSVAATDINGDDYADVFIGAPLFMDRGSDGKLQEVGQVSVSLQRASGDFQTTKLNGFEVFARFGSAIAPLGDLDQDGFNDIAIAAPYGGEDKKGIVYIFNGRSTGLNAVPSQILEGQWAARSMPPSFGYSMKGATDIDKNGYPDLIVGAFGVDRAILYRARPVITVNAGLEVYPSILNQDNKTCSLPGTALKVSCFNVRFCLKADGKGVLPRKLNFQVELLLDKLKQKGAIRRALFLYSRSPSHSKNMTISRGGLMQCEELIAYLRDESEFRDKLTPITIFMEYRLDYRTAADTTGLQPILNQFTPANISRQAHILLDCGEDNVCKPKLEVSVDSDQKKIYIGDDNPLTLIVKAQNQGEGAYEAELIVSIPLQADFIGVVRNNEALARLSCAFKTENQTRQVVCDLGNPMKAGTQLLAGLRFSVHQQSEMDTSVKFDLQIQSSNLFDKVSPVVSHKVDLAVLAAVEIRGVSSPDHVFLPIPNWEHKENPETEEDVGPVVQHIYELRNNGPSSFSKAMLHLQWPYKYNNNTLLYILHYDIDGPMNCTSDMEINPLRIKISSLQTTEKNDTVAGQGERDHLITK
Sequence (P06756 891-1048 partner limits assumed): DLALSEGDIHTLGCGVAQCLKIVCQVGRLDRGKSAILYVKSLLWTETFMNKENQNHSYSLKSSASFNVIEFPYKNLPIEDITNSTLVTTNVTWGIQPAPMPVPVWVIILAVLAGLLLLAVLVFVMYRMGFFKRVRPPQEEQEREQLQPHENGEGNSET
Sequence (P05106 27-788): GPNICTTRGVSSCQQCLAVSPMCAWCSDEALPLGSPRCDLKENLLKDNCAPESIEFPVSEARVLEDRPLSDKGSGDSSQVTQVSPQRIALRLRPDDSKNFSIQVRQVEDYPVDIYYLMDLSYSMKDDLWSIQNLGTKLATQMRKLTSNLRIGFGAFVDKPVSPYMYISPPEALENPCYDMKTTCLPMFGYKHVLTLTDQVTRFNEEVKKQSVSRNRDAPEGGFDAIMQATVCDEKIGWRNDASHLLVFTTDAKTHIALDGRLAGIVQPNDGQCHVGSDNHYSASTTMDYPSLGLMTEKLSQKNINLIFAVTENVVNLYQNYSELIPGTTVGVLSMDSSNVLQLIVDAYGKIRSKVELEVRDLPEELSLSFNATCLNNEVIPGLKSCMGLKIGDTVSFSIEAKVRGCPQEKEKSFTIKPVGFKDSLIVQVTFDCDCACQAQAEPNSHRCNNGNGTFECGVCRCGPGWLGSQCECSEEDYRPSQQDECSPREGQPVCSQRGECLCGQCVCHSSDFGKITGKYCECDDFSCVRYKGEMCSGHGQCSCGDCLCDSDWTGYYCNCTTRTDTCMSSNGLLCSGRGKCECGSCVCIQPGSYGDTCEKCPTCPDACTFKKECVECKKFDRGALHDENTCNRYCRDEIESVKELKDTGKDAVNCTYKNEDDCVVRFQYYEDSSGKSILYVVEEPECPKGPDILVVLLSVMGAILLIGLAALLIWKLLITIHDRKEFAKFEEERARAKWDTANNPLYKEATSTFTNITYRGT
Please assign NO whenever IC50 is at or above 200 nM, and YES whenever it is below.

Lookup: Given the entry Cc1c(C)c(C)c(S(=O)(=O)N[C@H](CC(=O)O)c2nc3ccc(/C=C/CNc4ccccn4)cc3c(=O)[nH]2)c(C)c1C [Compound 14] , would its reported IC50 be below 200 nM?
Found: YES

Lookup: Given the entry Cc1cccnc1NC/C=C/c1ccc2nc(C[C@H](NS(=O)(=O)c3c(C)c(C)c(C)c(C)c3C)C(=O)O)[nH]c(=O)c2c1 [Compound 38] , would its reported IC50 be below 200 nM?
Found: NO

Lookup: Given the entry O=C(Nc1ccccc1)N[C@@H](Cc1nc2ccc(/C=C/CNc3ccccn3)cc2c(=O)[nH]1)C(=O)O [Compound 12] , would its reported IC50 be below 200 nM?
Found: NO

Lookup: Given the entry COC(=O)[C@H](Cc1nc2ccc(/C=C/CNC3=NCCN3)cc2c(=O)[nH]1)NS(=O)(=O)c1c(C)c(C)c(C)c(C)c1C [Compound 41] , would its reported IC50 be below 200 nM?
Found: YES

Lookup: Given the entry Cc1c(C)c(C)c(S(=O)(=O)N[C@@H](Cc2nc3ccc(/C=C/CCNC4=NCCN4)cc3c(=O)[nH]2)C(=O)O)c(C)c1C [Compound 42] , would its reported IC50 be below 200 nM?
Found: YES
